Tested on: Sphaerotheca fuliginea
Assay: Control of cucumber powdery mildew by foliar spray
Type: in vivo
Details: foliar spray 7.8 ppm; inoculation 24 hr. before application; observed 10 days after inoculation
reported-metric: Control Index Curative Effect
Number, no unit, nothing else.

# count of solved cases: 5
Cc1cc(C(O)(Cn2cncn2)c2ccc(Cl)cc2)no1 (centres unmarked)    100
Cc1cc(C(O)(Cn2cncn2)c2ccc(Cl)cc2Cl)no1 (centres unmarked)    100
OC(Cn1cncn1)(c1ccon1)c1ccc(F)cc1F (centres unmarked)    100
Cc1onc(C(O)(Cn2cncn2)c2ccc(Cl)cc2)c1Cl (centres unmarked)    100
OC(Cn1cncn1)(c1ccc(Cl)cc1)c1ccon1 (centres unmarked)    100

Hi! What's the reported Control Index Curative Effect for Cc1cc(C(O)(Cn2cncn2)c2ccc(F)cc2F)no1 (centres unmarked) on Sphaerotheca fuliginea?
100

Hi! What's the reported Control Index Curative Effect for OC(Cn1cncn1)(c1ccon1)c1ccc(Cl)cc1Cl (centres unmarked) on Sphaerotheca fuliginea?
100
